Biological target: Gastrin/cholecystokinin type B receptor (Mus musculus)
Sequence (P56481 whole entry): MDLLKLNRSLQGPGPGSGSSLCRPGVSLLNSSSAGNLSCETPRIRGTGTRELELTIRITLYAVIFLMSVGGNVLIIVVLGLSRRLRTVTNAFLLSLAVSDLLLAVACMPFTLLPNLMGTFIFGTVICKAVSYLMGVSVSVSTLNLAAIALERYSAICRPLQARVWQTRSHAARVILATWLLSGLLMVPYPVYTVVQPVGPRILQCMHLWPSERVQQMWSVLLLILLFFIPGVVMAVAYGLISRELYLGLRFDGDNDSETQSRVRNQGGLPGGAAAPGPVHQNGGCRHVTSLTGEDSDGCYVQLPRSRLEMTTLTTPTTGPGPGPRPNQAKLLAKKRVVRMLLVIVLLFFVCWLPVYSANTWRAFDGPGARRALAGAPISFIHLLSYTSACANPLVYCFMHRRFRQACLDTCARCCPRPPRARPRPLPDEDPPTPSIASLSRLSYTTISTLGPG
property: pIC50
Please express pIC50 as -log10 of the molar concentration.

The measured pIC50 associated with `CC(C)CCNC(=O)[C@H](Cc1c[nH]c2ccccc12)NC(=O)OCc1ccccc1` reads 5.67

* * *

This document collects pKi values reported for UniProtKB P28336.
Sequence (P28336 whole entry): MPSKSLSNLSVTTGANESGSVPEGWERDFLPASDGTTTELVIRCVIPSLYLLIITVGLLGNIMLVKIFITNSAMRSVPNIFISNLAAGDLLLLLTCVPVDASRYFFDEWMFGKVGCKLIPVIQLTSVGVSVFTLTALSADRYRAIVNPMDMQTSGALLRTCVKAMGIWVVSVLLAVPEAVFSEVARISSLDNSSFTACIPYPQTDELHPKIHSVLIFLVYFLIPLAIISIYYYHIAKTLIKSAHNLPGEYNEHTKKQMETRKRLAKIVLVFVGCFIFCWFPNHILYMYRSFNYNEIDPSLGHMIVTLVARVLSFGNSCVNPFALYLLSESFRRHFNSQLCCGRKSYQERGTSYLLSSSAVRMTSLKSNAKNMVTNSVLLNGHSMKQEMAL
pKi: −log10 of the molar value.

CC(C)OC(=O)N[C@@H](Cc1c[nH]c2ccccc12)C(=O)NCCc1c[nH]c2ccccc12; < 5.00
CC(C)CNC(=O)[C@H](Cc1c[nH]c2ccccc12)NC(=O)OCCc1c[nH]c2ccccc12; 5.46
O=C(N[C@@H](Cc1c[nH]c2ccccc12)C(=O)NCCO)OCc1ccccc1; < 5.00
NCCCCOC(=O)N[C@@H](Cc1c[nH]c2ccccc12)C(=O)NCCc1ccccc1; < 5.00
O=C(O)COC(=O)N[C@@H](Cc1c[nH]c2ccccc12)C(=O)NCCc1ccccc1; < 5.00

Value of pKi reported for the compound `COC(=O)N[C@@H](Cc1c[nH]c2ccccc12)C(=O)NCCc1cnc[nH]1` is < 5.00

Please fill in: pKi reported for `CC(C)COC(=O)N[C@@H](Cc1c[nH]c2ccccc12)C(=O)NCCCCCN` = < 5.00

The recorded pKi for CC(C)CNC(=O)C(Cc1c[nH]c2ccccc12)NC(=O)OCc1cn(C(c2ccccc2)(c2ccccc2)c2ccccc2)cn1 (configuration not stated) is 7.43

Lookup result for CC(C)CCNC(=O)C(Cc1c[nH]c2ccccc12)NC(=O)OCc1c[nH]cn1 (configuration not stated) ; measured pKi: 5.41

pKi for `O=C(N[C@@H](Cc1c[nH]c2ccccc12)C(=O)NCCc1c[nH]c2ccccc12)OCc1c[nH]cn1` is 5.43

* * *

Biological target: Cholecystokinin receptor type A (Rattus norvegicus, UniProt P30551)
Sequence (P30551 whole entry): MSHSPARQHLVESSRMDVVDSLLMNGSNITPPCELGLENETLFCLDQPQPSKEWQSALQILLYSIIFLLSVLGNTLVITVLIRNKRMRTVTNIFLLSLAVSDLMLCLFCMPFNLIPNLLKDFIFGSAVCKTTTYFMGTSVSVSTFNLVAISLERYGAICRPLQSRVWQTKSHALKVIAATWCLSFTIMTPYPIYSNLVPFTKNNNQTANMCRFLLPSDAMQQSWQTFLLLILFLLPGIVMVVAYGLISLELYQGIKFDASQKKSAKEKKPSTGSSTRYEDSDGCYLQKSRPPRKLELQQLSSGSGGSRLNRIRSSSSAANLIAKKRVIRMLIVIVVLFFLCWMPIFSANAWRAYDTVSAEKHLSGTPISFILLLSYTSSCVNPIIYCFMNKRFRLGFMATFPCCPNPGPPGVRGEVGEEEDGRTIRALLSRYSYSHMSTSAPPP
property: IC50 (nM)
Provide only the numeric value, understood in nM.

Input `O=C(N[C@@H](Cc1c[nH]c2ccccc12)C(=O)NCCc1c[nH]c2ccccc12)OCc1ccccc1` . Output IC50: 450
